# testedOn: human cathepsin K (Homo sapiens, UniProt P43235)
# Construct: The proform of cathepsin K was converted to mature cathepsin K by brief exposure to pH 4; made in house; host or cells: baculovirus; Trichoplusia ni High Five cells (virus raised in Sf-9)
# Sequence (P43235 115-329): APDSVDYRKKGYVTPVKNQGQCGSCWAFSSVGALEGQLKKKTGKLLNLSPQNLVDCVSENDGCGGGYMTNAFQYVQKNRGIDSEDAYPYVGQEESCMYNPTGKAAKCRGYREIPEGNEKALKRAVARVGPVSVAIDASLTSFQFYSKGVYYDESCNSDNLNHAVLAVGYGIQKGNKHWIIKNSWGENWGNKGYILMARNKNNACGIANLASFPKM
# testMethodNotes: Cathepsin K inhibition assay, fluorogenic substrate Cbz-Phe-Arg-AMC, progress curve method
# Type: biochemical
# conditionLabel: Table 1; human recombinant enzyme, pH 5.5, 30° C., 10 μM substrate; read-out: hCat K Ki
pKi: −log10 of the molar value.
propertyLabel: pKi

CCCC[C@H](NC(=O)O[C@H](Cn1cnc(-c2ccc(C(F)(F)F)cc2)c1)C(C)(C)C)C(=O)C(=O)Nc1ccnn1C1CCC1 [Example 35]    7.00 to 9.00

Kindly note the recorded pKi for CCCC[C@H](NC(=O)O[C@H](Cc1nnc(-c2ccccc2)o1)C(C)(C)C)C(=O)C(=O)N[C@H](C)c1ccccc1 [Example 15] , which is 9.00 to 11.00

Noted for CCCC[C@H](NC(=O)O[C@H](COc1ccc(-n2ccnc2)cc1)C(C)(C)C)C(=O)C(=O)Nc1ccn[nH]1 [Example 49] : its pKi reads 9.00 to 11.00

Value source: patent US20050107616A1
